Values were extracted from patent US20260263495A1.

- method-notes: API concentration in the blood plasma of cattle after oral administration
- Format: in vivo
- condition-summary: 600 μg/kg (per pure IVM)
value-type: Cmax (nM)
Hi! Could you send only the number? It should be in nM, unit omitted.

Which Cmax value is on record for CC[C@H](C)[C@H]1O[C@]2(CC[C@@H]1C)C[C@@H]1C[C@@H](C/C=C(\C)[C@@H](O[C@H]3C[C@H](OC)[C@@H](O[C@H]4C[C@H](OC)[C@@H](O)[C@H](C)O4)[C@H](C)O3)[C@@H](C)/C=C/C=C3\CO[C@@H]4[C@H](O)C(C)=C[C@@H](C(=O)O1)[C@]34O)O2 ?
350
